Just for reference, PubChem BioAssay (NCI) is where these values come from.

System: HCT-116 colon
Assay: NCI-60 one-dose screen, 48 h (100 = growth as untreated, 0 = no growth, -100 = all killed)
Settings: 10 µM unless noted
This is part of a sample that, as a whole, favours compounds with a hit. Of some 83,000 tested, about 20% had one in any assay.
quantity-name: growth (%)
Provide the reading as a plain figure in %.

Request: State the recorded growth for this entry: Cc1ccc(S(=O)(=O)N/N=C/C2(c3ccccc3)CC2)cc1
Response: 98.7

Request: Could you share which growth value was measured for CCCCNc1nc(NN2C(=O)c3cccc4cccc(c34)C2=O)nc(-n2cnc3ccccc32)n1 ?
Response: 88.3

Request: Look at this compound and give its reported growth. COc1ccc(C2C(C#N)=C(N)Oc3c2sc2c(C)cccc32)cc1 (centres undefined)
Response: 13.2

Request: Consider the compound shown here: COc1ccc2[nH]c(-c3ccccc3)c(/C=C(\C#N)S(=O)(=O)c3ccccc3)c2c1 What is its recorded growth?
Response: 31.4

Request: Look up growth for this compound: c1cc(-c2nnc(SSc3ncnc4nc[nH]c34)o2)ccn1
Response: 16.6

Request: Entry under review: CCOC(=O)C1=C(N)Oc2c(sc3c(C)cccc23)C1c1ccc(Cl)cc1 (centres undefined) . Reported growth?
Response: 23.9

Request: So what does the record say about growth for CN1CCN(c2ccc(-c3ccc4ncc(C#N)c(Nc5ccc(F)c(Cl)c5)c4c3)cn2)CC1 ?
Response: 32.8

Request: I'd like to know its growth. The compound in question is CCOC(=O)CC1C(COC(=O)NC)OC(n2cnc3c(NC(=O)Nc4ccccc4)ncnc32)C1O[Si](C)(C)C(C)(C)C (centres undefined)
Response: 17.1

Request: Which value of growth has been reported for COC(=O)c1ccc2[nH]c(O)c(C(=Nc3ccc(N(C)C(=O)CN4CCN(C)CC4)cc3)c3ccccc3)c2c1 in the records?
Response: 6.52

Request: Using the record for CCCCOc1nc2c(C)cccc2cc1-c1cc(-c2ccc(Cl)cc2)nc(-c2ccc(Cl)cc2)c1 , report its growth.
Response: 99.5

Request: What growth value was documented for this compound, O=C1NC(=O)C(Cn2cnc3ccccc32)N1 (centres undefined) ?
Response: 109

Request: For the compound COc1ccc(C2NC(=O)C(C#N)c3c2sc2c(F)cccc32)c(OC)c1 (centres undefined) , what growth is on record?
Response: 23.8

Request: If you can, please state the reported growth value of CC([C@H]1CCC2C3CCC4C(=O)C(NC=O)=CC[C@]4(C)C3CC[C@@]21C)N(C)C (some centres undefined) .
Response: -7.83

Request: Which growth is listed for COc1ccc2c(c1)C(C)Cc1c(ncnc1-n1c(C)nc3ccccc31)N2C (centres undefined) ?
Response: 36.3

Request: I would be grateful if you could share the reported growth for C=C(C)[C@@H]1CC[C@]2(N=C=O)CC[C@]3(C)[C@H](CC[C@@H]4[C@@]5(C)Cc6c([nH]c7ccccc67)C(C)(C)[C@@H]5CC[C@]43C)[C@@H]12 .
Response: 11.6

Request: Returns the measured growth for the input compound. Input: O=C(Nc1ccc(OS(=O)(=O)c2ccc(F)cc2)cc1)c1ccc(Cl)cc1
Response: 95.5

Request: Requested field: growth. Item: CCOc1c(B(O)O)cccc1-c1nc2ccc3[nH]ncc3c2c2c1CCCC2
Response: 34.8

Request: Given Cc1nc2ccccc2n1CC1C(=O)NC(=O)NC1=O , state its recorded growth.
Response: 104

Request: # input compound: COc1cccc2c(=O)c3c(sc12)c(N1CCNCC1)nc1ccccc13 ; wanted: its growth
Response: -52.4

====

Tested on: COLO 205 colon
Experiment: NCI-60 one-dose screen, 48 h (100 = growth as untreated, 0 = no growth, -100 = all killed)
Settings: 10 µM unless noted
This is part of a sample that, as a whole, favours compounds with a hit. Of some 83,000 tested, about 20% had one in any assay.
quantity-name: growth (%)
Use % as the unit, but write only the number.

Request: Quick one: growth of O=[N+]([O-])c1ccc(Cl)c(-c2cc(CCCCO)on2)c1 ?
Response: 131

Request: Consider the compound shown here: COc1cc(/C=N/NC(=O)c2ccc(C)nc2)cc(OC)c1OC What is its recorded growth?
Response: 108

Request: Item Nc1nn(C(=O)Nc2ccc(Cc3ccccc3)cc2)c2ccc(Cl)cc12 has what recorded growth?
Response: 34.9

Request: Fill in the blank: the reported growth of CCOC(=O)c1c(C)oc2ncnc(N3CCN(C(=O)COc4ccc(C(C)(C)C)cc4)CC3)c12 is ____.
Response: 76.9

Request: # growth lookup, item O=c1c2cc(F)ccc2sc2c(NCCCNCCO)nc3ccc(F)cc3c12
Response: 23.3

====

System: NCI-H23 lung
Assay: NCI-60 one-dose screen, 48 h (100 = growth as untreated, 0 = no growth, -100 = all killed)
Settings: 10 µM unless noted
This is part of a sample that, as a whole, favours compounds with a hit. Of some 83,000 tested, about 20% had one in any assay.
quantity-name: growth (%)
Number only, in %; omit the unit.

Request: # get_value(readout='growth', item= OC(c1ccccc1)C(NC(Cc1ccccc1)c1ccccc1)c1ccccc1 (stereo not given) )
Response: 81.8

Request: For the compound Cc1nc(NC(=O)COc2ccc(/C=C3\Cc4ccc(Cl)cc4C3=O)cc2)sc1C , what growth is on record?
Response: 100

Request: Report growth for O=c1[nH][n+](-c2ccc(Br)cc2)no1 please.
Response: 88.8

Request: Item C[N+]1=C(/C=C/c2ccc(O)c3ncccc23)C(C)(C)c2ccccc21 has what recorded growth?
Response: 80.1

Request: Given the entry CSc1nc2ccc(C)cc2cc1/C=N/O , report its measured growth.
Response: 99.4

Request: Given O=C(Cc1ccc(F)c(Cl)c1)Nc1cc(C2(C(F)(F)F)CC2)nn1Cc1ccccc1 , state its recorded growth.
Response: 55.3

Request: Quick one: growth of CCOC(=O)c1cn2ncnc(Oc3ccc(NC(=O)NCCN4CCOCC4)c(Cl)c3)c2c1C ?
Response: 99.6

Request: Find the recorded growth belonging to COc1ccc(CNC(=O)[C@H](O)[C@@H](N)Cc2ccccc2)cc1 and report it.
Response: 99.9

Request: Bench note: what growth did COc1ccc(OC)c(/C=C/C(=O)N/N=C/c2ccc(Cl)cc2)c1 show?
Response: 34.8

Request: Item CN1CCN(c2ccc(-c3ccc4ncc(C#N)c(Nc5ccc(F)c(Cl)c5)c4c3)cn2)CC1 has what recorded growth?
Response: 79

Request: Bench note: what growth did OC(COc1ccccc1Cl)CN1CCN(c2cccc(Cl)c2)CC1 (stereo not given) show?
Response: 100

Request: Quick one: growth for O=c1n(Cc2ccc3ccccc3c2)ccn1Cc1ccc2ccccc2c1 ?
Response: 91

Request: I have this compound here, COc1ccc(C2C(N)=NNC2c2cccc(O)c2)cc1 (stereo not given) , and I need its recorded growth.
Response: 90.2

Request: For O=S(=O)(Nc1ccc(-c2nc(-c3cccc(OCCN4CCOCC4)c3)c(-c3ccnc(Br)c3)[nH]2)cc1)c1ccccc1 , what is its reported growth?
Response: 35.5

Request: Returns the measured growth for the input compound. Input: O=S(=O)(NCCCNc1cc(-c2c(-c3cccc(O)c3)nc3sccn23)ccn1)c1cccc2ccccc12
Response: 39.8

Request: Any idea what growth was measured for COc1ccc(/C=C/c2c(C(=O)/C=C/c3ccc(Cl)cc3)c(C)nc3ccccc23)cc1 ?
Response: 35.8

Request: Fill blank: measured growth of the compound COc1cc(CCC[P+](c2ccccc2)(c2ccccc2)c2ccccc2)c(OC)c(OC)c1OC is ____.
Response: 77.9

Request: Would you kindly share the measured growth for CCCC1CCC(O)(C(C)(O)C(=O)NC2C(=O)N3NCCCC3C(=O)N(O)C(C)C(=O)N3NCCCC3C(=O)N3NCC(O)CC3C(=O)NC(C)C(=O)OC2C(C)C)OC1CC (stereo not given) ?
Response: -85.9

Request: Give its growth value. Item: Oc1ccc(Cl)cc1Cc1cc(Cl)cc(Cl)c1O
Response: 9.44

Request: Tell me the measured growth of BrCCCc1n(Cc2ccc3ccccc3c2)c2ccccc2[n+]1Cc1ccc2ccccc2c1 , please.
Response: -81.3

====

Tested on: HOP-62 NSCLC
Test: NCI-60 one-dose screen, 48 h (100 = growth as untreated, 0 = no growth, -100 = all killed)
Conditions: 10 µM unless noted
The panel holds about 83,000 compounds, 20% with a hit somewhere; the sample as a whole holds those more often.
Exercise: state measured growth for each of the compounds provided.
Numbers only; they are read as %.

Request: growth for S=c1nc(-c2ccccc2)oc(=NC2CCCCC2)n1C1CCCCC1 ?
Response: 62.8

Request: Quick one: growth of CNC(C)[C@H]1CCC2C3CCC4C[C@@H](N(C)C(=O)c5ccccc5)CC[C@]4(C)C3CC[C@@]21C (stereo not given in full) ?
Response: 38.4

Request: What growth value was documented for this compound, COc1nc2ccc(C)cc2cc1-c1nc2c(cnn2-c2ccccc2)c(=O)[nH]1 ?
Response: 70.9

Request: Recorded growth of C[C@H](C(=O)Nc1ccc(S(N)(=O)=O)cc1)S(=O)(=O)c1ccccc1 , please.
Response: 87.6

Request: Looking for the measured growth of CCOC(=O)Nc1ccc(C(=O)/C=C/c2ccccc2)cc1 , can you help?
Response: 90.2
